Here, each record is paired with measured TGI data.
# System: M14 melanoma
# PROTOCOL NOTES: NCI tumour cell line growth inhibition, 48 h
MEASURED QUANTITY: TGI

[[record]]
smiles_representation = "COC(=O)/C=C\\n1c(C)cc(=O)[nH]c1=O"
assayed_target = "M14 melanoma"
assay_result = "> 100 µM"

[[record]]
smiles_representation = "COC(=O)c1c(O)ccc2c1c1c(n2Cc2ccccc2Cl)C(=O)c2ccccc2C1=O"
assayed_target = "M14 melanoma"
assay_result = "34 µM"

[[record]]
smiles_representation = "COc1ccc(-c2cc(=O)c3cc4c(cc3[nH]2)OCO4)cc1OC"
assayed_target = "M14 melanoma"
assay_result = "> 100 µM"

